Target: T1, SCD1, individual purified protein (mouse, UniProt P13516 1-355)
T1 construct: stearoyl-CoA desaturase-1 (SCD1), mouse, UniProt P13516; surmised: ENLYFQ of the TEV site is left at the C-terminus; source: HEK 293S (BacMam), purified (GFP nanobody resin, released by TEV protease, SEC in 1 mM DDM); not shown: GFP, C-terminal, cleaved
T1 sequence (looked up): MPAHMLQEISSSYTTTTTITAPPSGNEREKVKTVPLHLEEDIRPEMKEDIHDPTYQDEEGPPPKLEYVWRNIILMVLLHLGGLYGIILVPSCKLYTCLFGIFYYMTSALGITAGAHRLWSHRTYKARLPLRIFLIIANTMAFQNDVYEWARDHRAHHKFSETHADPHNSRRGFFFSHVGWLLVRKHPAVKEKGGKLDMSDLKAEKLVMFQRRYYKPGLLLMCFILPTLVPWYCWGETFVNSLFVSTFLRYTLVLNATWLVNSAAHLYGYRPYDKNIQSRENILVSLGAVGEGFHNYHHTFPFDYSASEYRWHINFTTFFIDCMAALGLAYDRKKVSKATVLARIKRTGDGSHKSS
Assay: BLI; Octet, 30 °C, 1000 rpm; soluble cyt b5 coupled to AR2G (amine reactive) biosensors; analytes soluble b5R or SCD1 at 5, 2.5 and 1.25 µM; FPLC buffer (20 mM HEPES pH 7.5, 150 mM NaCl, 1 mM DDM) plus 0.1% BSA; KD from kon and koff of 1-exponential fits
Details: both partners purified
I'd be grateful if you could share measured pKd for these entries.
Answers are plain numbers, as −log10 of the molar value.

The cases that follow already have their pKd on record.
1) soluble cyt b5 (4-89) E43A (domain or fragment, mouse, UniProt P56395 4-89, looked up, cytochrome b5, mouse, UniProt P56395, soluble domain, residues 4-89; coupled by amines to AR2G biosensors; also called cyt b5 (E43A); source: E. coli BL21(DE3) (pET vector), purified (procedures similar to those for the full-length proteins)) QSDKDVKYYTLEEIQKHKDSKSTWVILHHKVYDLTKFLEAHPGGEEVLREQAGGDATENFEDVGHSTDARELSKTYIIGELHPDDR | 4.95
2) soluble cyt b5 (4-89), wild type (domain or fragment, mouse, UniProt P56395 4-89, looked up, cytochrome b5, mouse, UniProt P56395, soluble domain, residues 4-89; coupled by amines to AR2G biosensors; also called cyt b5 (WT); source: E. coli BL21(DE3) (pET vector), purified (procedures similar to those for the full-length proteins)) QSDKDVKYYTLEEIQKHKDSKSTWVILHHKVYDLTKFLEEHPGGEEVLREQAGGDATENFEDVGHSTDARELSKTYIIGELHPDDR | 5.35

In the following, a different binder is considered.
In plain terms, soluble cyt b5 (4-89) E49A (domain or fragment, mouse, UniProt P56395 4-89, looked up, cytochrome b5, mouse, UniProt P56395, soluble domain, residues 4-89; coupled by amines to AR2G biosensors; also called cyt b5 (E49A); source: E. coli BL21(DE3) (pET vector), purified (procedures similar to those for the full-length proteins)) QSDKDVKYYTLEEIQKHKDSKSTWVILHHKVYDLTKFLEEHPGGEAVLREQAGGDATENFEDVGHSTDARELSKTYIIGELHPDDR has a documented pKd of 5.08

Values were extracted from paper PMC9468158.
